Test: fission yeast growth modulation, primary screen, strain 972, OD600, 24 h, no modulator (AID 1090);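 also: basal condition with compound alone and no growth modifier present; test concentration not given here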
Details: S. pombe 972 growth, higher = more signal, called active from +8 up or from −8 down
Short version: z-score at least -0.09 is YES, less is NO.

Worked cases, answers included:
> print(dat)
                                   compound  assigned.class
1    CC#CCOCCC=C1c2ccccc2[C@@H](OC)[C@@H]1C              NO
2  COC(=O)[C@H](Cc1ccccc1)NC(=O)[C@@H](C)CO              NO
3  CO[C@@H]1C=CCC(=O)N[C@@H](C)C(=O)OC[C@@H](OC)[C@H](C)C=CCC(=O)OC[C@H]1C              NO
4  O=C1C2=CC[C@H]3C(=O)N(c4ccc(F)cc4F)C(=O)[C@H]3[C@H]2[C@H](O)[C@@H]2O[C@H]12             YES
5  CC(CCN1CCCCc2nc(C)c(C)cc21)=NOC[C@@H](O)[C@H]1O[C@@H]2OC(C)(C)O[C@@H]2[C@H]1O             YES
6  COC(=O)[C@H](C)NC(=O)CCC1CC(OC(=O)NCc2cccc3ccccc23)CC2(CCCC(COC(=O)NCCc3ccccc3OC)O2)O1 (stereo partly drawn)             YES

Shifting focus to the compound that follows.
Exercise: Quick check: does O=C1C=C[C@@H](O)[C@@H]2[C@@H]3C(=O)N(Cc4ccccc4)C(=O)[C@@H]3CC[C@@H]12 have z-score greater than or equal to -0.09?
Key: NO
